- assay-target: UniProt P32246
- Sequence (P32246 whole entry): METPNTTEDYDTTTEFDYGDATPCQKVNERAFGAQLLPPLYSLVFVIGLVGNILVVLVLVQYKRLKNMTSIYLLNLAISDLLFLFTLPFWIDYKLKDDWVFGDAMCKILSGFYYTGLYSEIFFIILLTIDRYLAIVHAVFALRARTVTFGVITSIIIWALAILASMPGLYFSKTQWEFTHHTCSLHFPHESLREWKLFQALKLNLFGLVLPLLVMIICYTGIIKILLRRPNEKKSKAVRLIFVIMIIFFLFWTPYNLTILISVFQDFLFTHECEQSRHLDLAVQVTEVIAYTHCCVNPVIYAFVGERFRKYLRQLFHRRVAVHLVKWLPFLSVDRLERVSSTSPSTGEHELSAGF
- experiment-notes: Antagonist activity at CCR1
pIC50: −log10 of the molar value.

chemical-smiles | pIC50
O=C(NC[C@@H](O)CN1CCC(Oc2ccc(Cl)c(Cl)c2)CC1)c1c[nH]c(=O)c2ccccc12 | 5.30

====

- experiment-notes: in vitro
- run-parameters: rat, liver microsomes
endpoint-label: log10 microsomal CLint (log10 of the value in µL/min/mg)

chemical-smiles | log10 microsomal CLint
N#Cc1cccc(S(=O)(=O)NC[C@@H](O)CN2CCC(Oc3ccc(Cl)c(Cl)c3)CC2)c1 | 1.11
N#Cc1cccc(OC[C@@H](O)CNC2CCN(Cc3ccc(Cl)c(Cl)c3)CC2)c1 | 1.36
N#Cc1cccc(OC[C@@H](O)CN2CCC(Oc3ccc(Cl)c(Cl)c3)CC2)c1 | 1.36
COc1cccc(SC[C@@H](O)CN2CCC(Oc3ccc(Cl)c(Cl)c3)CC2)c1 | 1.69
N#Cc1cccc(OCCCN2CCC(Oc3ccc(Cl)c(Cl)c3)CC2)c1 | 2.11
CS(=O)(=O)c1ccc(C(=O)NC[C@@H](O)CN2CCC(Oc3ccc(Cl)c(Cl)c3)CC2)s1 | 1.30
O=C(NC[C@@H](O)CN1CCC(Oc2ccc(Cl)c(Cl)c2)CC1)c1cn2cc(F)ccc2n1 | 1.28
COc1cc(C(=O)NC[C@@H](O)CN2CCC(Oc3ccc(Cl)c(Cl)c3)CC2)ccc1N | 1.26
CS(=O)(=O)c1ccccc1C(=O)NC[C@@H](O)CN1CCC(Oc2ccc(Cl)c(Cl)c2)CC1 | 0.90
N#Cc1cccc(OC[C@@H](O)CCN2CCC(Oc3ccc(Cl)c(Cl)c3)CC2)c1 | 1.34

====

Measured Ki of individual entries
- assay-target: C-C chemokine receptor type 3 (Homo sapiens, UniProt P51677)
- Sequence (P51677 whole entry): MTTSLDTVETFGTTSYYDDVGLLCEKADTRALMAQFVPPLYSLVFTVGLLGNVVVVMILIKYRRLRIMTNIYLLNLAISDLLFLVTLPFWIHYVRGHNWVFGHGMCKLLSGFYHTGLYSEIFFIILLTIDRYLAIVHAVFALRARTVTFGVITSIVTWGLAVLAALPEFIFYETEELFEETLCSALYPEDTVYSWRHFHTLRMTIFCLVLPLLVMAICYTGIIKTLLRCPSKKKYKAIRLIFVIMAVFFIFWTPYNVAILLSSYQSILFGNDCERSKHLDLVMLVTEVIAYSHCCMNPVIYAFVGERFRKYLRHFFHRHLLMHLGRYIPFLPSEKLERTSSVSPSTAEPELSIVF
- experiment-notes: Displacement of [3H]-4-(2,4-dichloro-3-methylphenoxy)-l'-[4- (methylsulfonyl)benzoyl]-l,4'-bipiperidine from human recombinant CCR3 expressed in CHOK1 cells after 2 hrs by scintillation counting analysis

chemical-smiles | unit-tag | Ki
O=C(NC[C@@H](O)CN1CCC(Oc2ccc(Cl)c(Cl)c2)CC1)c1n[nH]c(=O)c2ccccc12 | nM | 1.58
O=C(NC[C@@H](O)CN1CCC(Oc2ccc(Cl)c(Cl)c2)CC1)c1cnnc2ccccc12 | nM | 12.6
O=C(NC[C@@H](O)CN1CCC(Oc2ccc(Cl)c(Cl)c2)CC1)c1c[nH]c2ccccc12 | nM | 2.51

====

Measured microsomal CLint of individual entries
- experiment-notes: in vitro
- run-parameters: human, liver microsomes

chemical-smiles | value-qualifier | microsomal CLint (µL/min/mg)
N#Cc1cccc(S(=O)(=O)NC[C@@H](O)CN2CCC(Oc3ccc(Cl)c(Cl)c3)CC2)c1 | = | 7
N#Cc1cccc(OC[C@@H](O)CCN2CCC(Oc3ccc(Cl)c(Cl)c3)CC2)c1 | < | 3
N#Cc1cccc(OCCCN2CCC(Oc3ccc(Cl)c(Cl)c3)CC2)c1 | = | 3
N#Cc1cccc(OC[C@@H](O)CN2CCC(Oc3ccc(Cl)c(Cl)c3)CC2)c1 | < | 3
COc1cccc(SC[C@@H](O)CN2CCC(Oc3ccc(Cl)c(Cl)c3)CC2)c1 | = | 17
N#Cc1ccc(OC[C@@H](O)CNC2CCN(Cc3ccc(Cl)c(Cl)c3)CC2)cc1 | < | 3
O[C@@H](CNC1CCN(Cc2ccc(Cl)c(Cl)c2)CC1)COc1ccc2ncsc2c1 | < | 3
